assay: Selectivity index, ratio of CC50 for human MT4 cells to EC50 for HIV-1 3B; type: toxicity, cell-based; details: read-out: Ratio CC50/EC50
QUANTITY: selectivity ratio
Note: the reply should be a number with no unit written.

1. Cc1cc(C)c(Cn2cc(C(=O)C3=C(O)C(=O)OC3)c3cc(F)ccc32)c(C)c1: 2
2. COc1cccc2c1c(C(=O)/C=C(\O)C(=O)O)cn2Cc1ccc(F)cc1: 70
3. COc1ccc2c(c1)c(C(=O)/C=C(\O)C(=O)O)cn2Cc1cc(C)cc(C)c1: 23
4. Cc1cc(C)c(Cn2cc(C(=O)C3=C(O)C(=O)OC3)c3cc(Cl)ccc32)c(C)c1: 2

Consider the molecule O=C(O)/C(O)=C/C(=O)c1cn(Cc2ccc(C(F)(F)F)cc2)c2ccc(Cl)cc12 and give its measured selectivity ratio. 5

Entry CC(C)(C)c1ccc(Cn2cc(C(=O)C3=C(O)C(=O)OC3)c3cc(Cl)ccc32)cc1 has what selectivity ratio? 2

What value of selectivity ratio has been reported for the following molecule? Cc1cc(C)cc(Cn2cc(C(=O)/C=C(\O)C(=O)O)c3c(O)cccc32)c1 10

Using the record for O=C(O)/C(O)=C/C(=O)c1cn(Cc2ccc(C(F)(F)F)cc2)c2ccc(F)cc12 , report its selectivity ratio. 2

Could you tell me which selectivity ratio is on file for Cc1cc(C)c(Cn2cc(C(=O)/C=C(\O)C(=O)O)c3cc(F)ccc32)c(C)c1 ? 21

I have this molecule here, COc1ccc2c(c1)c(C(=O)/C=C(\O)C(=O)O)cn2Cc1c(C)cc(C)cc1C , and I need its recorded selectivity ratio. 8

Which selectivity ratio value belongs to Cc1cc(C)cc(Cn2cc(C(=O)C3=C(O)C(=O)OC3)c3cc(Cl)ccc32)c1 ? 3
